System: E. coli TESEC Alr+ wild-type control
assayNotes: growth (OD600 after 10 h); higher = more growth (less inhibition)
measurementSetup: compound 0.1 mM; raw OD600 reference: median of DMSO wells 0.49, cell-free background 0.052
Structures can show the parent of a compound that is named as a salt.
Record satisfied whenever growth is at 0.6 or higher; record not satisfied when lower.

Is growth for `C[C@H]1O[C@H](O[C@H]2[C@H](O)[C@@H](O)[C@@H](O[C@@H]([C@H](O)[C@@H](O)C=O)[C@H](O)CO)O[C@@H]2CO)[C@H](O)[C@@H](O)[C@@H]1N[C@H]1C=C(CO)[C@@H](O)[C@H](O)[C@H]1O` at or above 0.6?
not satisfied

Is growth for `Nc1ccc(C(=O)NCC(=O)O)cc1` at or above 0.6?
satisfied

Is growth for CCOC(=O)NNc1nncc2ccccc12 [Todralazine hydrochloride] at or above 0.6?
not satisfied

Is growth for CC(C)[C@H]1CC[C@H](C(=O)N[C@H](Cc2ccccc2)C(=O)O)CC1 [Nateglinide] at or above 0.6?
satisfied

Is growth for CCOC(=O)C1=C(COCCN)NC(C)=C(C(=O)OC)C1c1ccccc1Cl (stereo not given) at or above 0.6?
not satisfied
